target: TRKA (Homo sapiens (Human), UniProt P04629); experiment: Isolated TRK enzyme assay (HTRF KinEASE-TK), TRKA; format: biochemical; settings: isolated TRKA enzyme; read-out: TrkA enzyme potency
Sequence (P04629 441-796): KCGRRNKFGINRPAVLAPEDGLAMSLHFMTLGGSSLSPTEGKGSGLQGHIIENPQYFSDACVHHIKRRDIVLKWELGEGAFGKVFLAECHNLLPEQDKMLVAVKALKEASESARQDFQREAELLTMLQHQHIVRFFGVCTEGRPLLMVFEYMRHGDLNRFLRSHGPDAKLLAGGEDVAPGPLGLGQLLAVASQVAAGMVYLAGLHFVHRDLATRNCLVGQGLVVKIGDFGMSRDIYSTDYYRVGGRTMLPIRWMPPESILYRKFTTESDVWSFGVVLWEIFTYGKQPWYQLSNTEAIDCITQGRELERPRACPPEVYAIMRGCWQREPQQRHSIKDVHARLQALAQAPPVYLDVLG
pIC50: −log10 of the molar value.
Decide using pIC50: a value greater than or equal to 8 is Y, a smaller one is N.

# example entries with known answers
CC(CO)n1cc(C(=O)c2cncc(NC(=O)Cn3cc(C(F)(F)F)nn3)c2)c2cnc(N)nc21 (single isomer, unassigned) [Example 39] ... N
CC(C)(CO)n1cc(C(=O)c2cncc(NC(=O)Cc3ccc(C(F)(F)F)cc3)c2)c2cnc(N)nc21 ... Y
CC(CO)n1cc(C(=O)c2cncc(NC(=O)Cc3ccc(Cl)cc3)c2)c2cnc(N)nc21 (single isomer, unassigned) [Example 42] ... Y

Kindly consider the entry below.
Assess whether reported pIC50 for CC(C)(CO)n1cc(C(=O)c2cncc(NC(=O)Cn3ccc(C(F)(F)F)n3)c2)c2cncnc21 sits at 8 or higher. Y
